target: NMDA receptor GRIN1/GRIN2B (NR2B) expressed in HEK293 cells (Homo sapiens); construct: host or cells: HEK293; assay: Reversal of Ro 25-6981-mediated suppression of the Ca2+ response (fluo-8 fluorescence, FDSS) in HEK293 cells expressing GRIN1 and GRIN2B; type: cell-based; settings: % reversal=100*(R−Rneg)/(Rpos−Rneg) of Ro 25-6981 suppression of co-agonist (glutamate/glycine) Ca2+ response, 10 min pre-incubation, compound concentration not given
Sequence (Q13224 27-1484, other chains not shown): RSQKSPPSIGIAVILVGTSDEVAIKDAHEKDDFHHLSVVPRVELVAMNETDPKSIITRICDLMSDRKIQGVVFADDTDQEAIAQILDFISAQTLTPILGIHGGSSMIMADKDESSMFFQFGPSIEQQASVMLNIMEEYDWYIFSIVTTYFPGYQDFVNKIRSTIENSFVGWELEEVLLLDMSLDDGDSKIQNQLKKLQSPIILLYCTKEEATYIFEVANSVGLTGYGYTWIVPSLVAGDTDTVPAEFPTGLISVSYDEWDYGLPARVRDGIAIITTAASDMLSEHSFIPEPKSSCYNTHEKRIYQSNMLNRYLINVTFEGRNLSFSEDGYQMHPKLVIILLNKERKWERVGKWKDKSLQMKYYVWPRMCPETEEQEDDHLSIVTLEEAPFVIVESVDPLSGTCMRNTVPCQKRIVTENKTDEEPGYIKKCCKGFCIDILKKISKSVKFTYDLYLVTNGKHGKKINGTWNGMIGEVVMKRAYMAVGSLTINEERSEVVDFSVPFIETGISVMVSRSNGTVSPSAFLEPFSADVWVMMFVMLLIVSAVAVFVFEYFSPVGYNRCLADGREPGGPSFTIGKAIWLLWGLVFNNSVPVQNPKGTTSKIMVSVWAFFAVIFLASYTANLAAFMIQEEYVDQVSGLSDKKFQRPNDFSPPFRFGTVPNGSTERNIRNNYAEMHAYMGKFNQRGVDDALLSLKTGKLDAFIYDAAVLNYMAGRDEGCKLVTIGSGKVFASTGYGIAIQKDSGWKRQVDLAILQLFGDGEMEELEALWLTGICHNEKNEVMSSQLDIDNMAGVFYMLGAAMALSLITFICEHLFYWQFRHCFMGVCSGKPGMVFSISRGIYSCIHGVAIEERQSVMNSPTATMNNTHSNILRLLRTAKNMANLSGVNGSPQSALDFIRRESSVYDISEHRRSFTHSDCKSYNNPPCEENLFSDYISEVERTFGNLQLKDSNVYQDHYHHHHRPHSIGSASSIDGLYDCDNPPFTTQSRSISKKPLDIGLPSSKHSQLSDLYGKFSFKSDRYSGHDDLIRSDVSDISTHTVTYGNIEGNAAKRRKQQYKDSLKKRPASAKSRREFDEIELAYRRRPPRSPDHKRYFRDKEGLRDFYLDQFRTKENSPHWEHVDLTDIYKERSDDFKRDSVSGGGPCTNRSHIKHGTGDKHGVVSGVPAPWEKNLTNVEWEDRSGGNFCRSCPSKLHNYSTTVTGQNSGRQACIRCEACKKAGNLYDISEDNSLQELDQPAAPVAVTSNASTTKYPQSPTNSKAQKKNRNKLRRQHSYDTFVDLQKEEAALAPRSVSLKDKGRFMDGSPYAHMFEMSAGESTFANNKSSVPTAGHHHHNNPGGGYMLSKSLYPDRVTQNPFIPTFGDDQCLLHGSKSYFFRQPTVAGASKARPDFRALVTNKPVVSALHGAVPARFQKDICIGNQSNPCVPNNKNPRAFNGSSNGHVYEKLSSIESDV
# Response Recovered (%) per record follows
Reply with just the number (in %).

O=C(Cn1cnc2scc(-c3ccc(F)cc3)c2c1=O)N1CCCCC1 = 4
O=C(Cn1cnc2scc(-c3ccc(Cl)cc3)c2c1=O)NC1CC1 = 2

Q: Answer with the recorded Response Recovered (%) for the compound listed here: COc1ccc(C(F)(F)F)cc1-c1csc2ncn(CC(=O)N3CCCC3)c(=O)c12
Result: 4

Q: Please give measured Response Recovered (%) of the following entry: O=C(Cn1cnc2scc(-c3ccc(OC(F)(F)F)cc3)c2c1=O)N1CCCC1
Result: 16

Q: Specify Response Recovered (%) for Cc1ccc(-c2csc3ncn(CC(=O)N4CCCC4C(F)(F)F)c(=O)c23)cc1 (stereo not drawn) and stop.
Result: 6
